From: patent EP0362645B1

Test system: adriamycinresistente S 180 Maus Sarcomazellen
Experimental Protocol: MTT proliferation/cytotoxicity assay on adriamycin-resistant S 180 sarcoma cells, with or without adriamycin (sensitisation)
Assay type: cell-based
Reported Conditions: S-180, 144 h, Tabelle 2; Adriamycin 0 ng/ml; six days culture, MTT readout
Result Type: IC50

{"columns": ["Compound", "Tested Target", "IC50"],
 "data": [
  ["CC1CN(c2nc(N(CCO)CC(C)(C)O)c3nc(-c4ccccc4)c(N4CC(C)OC(C)C4)nc3n2)CC(C)O1 (centres unmarked)", "adriamycinresistente S 180 Maus Sarcomazellen", "20.7 µg/mL"],
  ["CCN(CCO)c1nc(N2CC(C)OC(C)C2)nc2nc(N3CC(C)OC(C)C3)c(-c3ccccc3)nc12 (centres unmarked)", "adriamycinresistente S 180 Maus Sarcomazellen", "> 31.6 µg/mL"],
  ["C[C@@H]1CN(c2nc(N(CCO)CC(C)(C)O)c3nc(-c4ccccc4)c(N4C[C@@H](C)O[C@@H](C)C4)nc3n2)C[C@H](C)O1", "adriamycinresistente S 180 Maus Sarcomazellen", "7.5 µg/mL"],
  ["CC1CN(c2nc(N(CCO)CCO)c3nc(-c4ccccc4)c(N4CC(C)OC(C)C4)nc3n2)CC(C)O1 (centres unmarked)", "adriamycinresistente S 180 Maus Sarcomazellen", "14.4 µg/mL"]
]}

Could you now consider this next compound?
QUERY: For the compound CC(O)CN(CCO)c1nc(N2CC(C)OC(C)C2)nc2nc(N3CC(C)OC(C)C3)c(-c3ccccc3)nc12 (centres unmarked) , give its reported IC50.
RESULT: 12.8 µg/mL
